Taken from paper PMC7646200.

experiment: Sulfonation of 7-hydroxycoumarin derivatives by rabbit liver cytosol; conditions: female, Dutch belted, rabbit, liver cytosol, pH 7.4
Listed here are molecules together with their documented Km.

// known answers, use as guide
molecule="COc1cc2ccc(=O)oc2cc1O [compound 3, 6-methoxy-7-hydroxycoumarin]" property_measured=Km test_value="0.99 µM"
molecule="O=c1ccc2ccc(O)cc2o1 [compound 1, 7-hydroxycoumarin, reference compound]" property_measured=Km test_value="1.7 µM"
molecule=CN(C)c1ccc(-c2cc3ccc(O)cc3oc2=O)cc1 property_measured=Km test_value="0.67 µM"
molecule="Cc1ccc(-c2cc3ccc(O)cc3oc2=O)cc1 [compound 8, 3-(4-methylphenyl)-7-hydroxycoumarin]" property_measured=Km test_value="7.3 µM"

I am curious: what Km value has been reported for CCc1c(C)c2ccc(O)cc2oc1=O [compound 5, 3-ethyl-4-methyl-7-hydroxycoumarin] ?
1.3 µM

CCc1c(C)c2ccc(O)c(C)c2oc1=O [compound 6, 3-ethyl-4,8-dimethyl-7-hydroxycoumarin] ?
1.7 µM

O=c1oc2cc(O)ccc2cc1-c1ccc(O)cc1 [compound 9, 3-(4-hydroxyphenyl)-7-hydroxycoumarin] ?
0.95 µM
